Assay: Survival rate of HeLa cells
Assay type: cell-based
Conditions: human
Residues, ends and D or L forms follow the SMILES beside them. *: point of attachment. X1 = O=C1c2cccc3c(N4CCCCC4)ccc(c23)C(=O)C1CC(=O)*
quantity.kind: viability

Task: Which viability value belongs to C[C@H](NC(=O)[C@H](CCC(=O)O)NC(=O)CNC(=O)[C@H](CC(=O)O)NC(=O)[C@H](Cc1ccccc1)NC(=O)CC1C(=O)c2cccc3c(N4CCCCC4)ccc(c23)C1=O)C(=O)O (stereo partly shown) (X1-FDGEA-OH) ?
Output: > 50%

* * *

Assay: Survival rate of WSI cells
Assay type: cell-based
Conditions: human
From the text: The above experimental result is much better than a standard of IC50 (50% inhibitory concentration). […] The water-soluble peptide fluorescence material of the present disclosure has low toxicity and excellent compatibility to PC-3 cells, so as to avoid mass mortality of the cells. […] The water-soluble peptide fluorescence material has excellent compatibility with these cells since the survival rate of these cell are all over 50%.
Residues, ends and D or L forms follow the SMILES beside them. *: point of attachment. X1 = O=C1c2cccc3c(N4CCCCC4)ccc(c23)C(=O)C1CC(=O)*
quantity.kind: viability

Task: May I ask what viability has been recorded for C[C@H](NC(=O)[C@H](CCC(=O)O)NC(=O)CNC(=O)[C@H](CC(=O)O)NC(=O)[C@H](Cc1ccccc1)NC(=O)CC1C(=O)c2cccc3c(N4CCCCC4)ccc(c23)C1=O)C(=O)O (stereo partly shown) (X1-FDGEA-OH) ?
Output: > 50%
